The measurements presented in this section are drawn from paper PMC6001238.

Test system: MRSA KS2
Assay: MIC, broth microdilution, MRSA KS2
Assay type: cell-based, Staphylococcus aureus
Conditions: Staphylococcus aureus MRSA KS2; read-out: MIC
In this section we review reported MIC values for a set of molecules.
A number alone suffices; assume µM.

Below, each entry is followed by its recorded MIC result.
| molecule | measure_unit | MIC |
| --- | --- | --- |
| CNC(CC(C)C)C(=O)NC1C(=O)NC(CC(N)=O)C(=O)NC2C(=O)NC3C(=O)NC(C(=O)NC(C(=O)NCC(=O)Nc4ccc(-c5ccc(C(C)=O)cc5)cc4)c4cc(O)cc(O)c4-c4cc3ccc4O)C(O)c3ccc(c(Cl)c3)Oc3cc2cc(c3OC2OC(CO)C(O)C(O)C2OC2CC(C)(N)C(O)C(C)O2)Oc2ccc(cc2Cl)C1O (stereo not drawn) | µM | 0.20 |
| C#Cc1ccc(-c2ccc(C(=O)NCCCNC(=O)[C@H]3NC(=O)[C@H]4NC(=O)[C@H](NC(=O)[C@@H]5NC(=O)[C@H](CC(N)=O)NC(=O)[C@H](NC(=O)[C@@H](CC(C)C)NC)[C@H](O)c6ccc(c(Cl)c6)Oc6cc5cc(c6O[C@@H]5O[C@H](CO)[C@@H](O)[C@H](O)[C@H]5O[C@H]5C[C@](C)(N)[C@H](O)[C@H](C)O5)Oc5ccc(cc5Cl)[C@H]4O)c4ccc(O)c(c4)-c4c(O)cc(O)cc43)cc2)cc1 | µM | 0.20 |

Now consider the entry below.
Query string: Look up MIC for this molecule: CN[C@H](CC(C)C)C(=O)N[C@H]1C(=O)N[C@@H](CC(N)=O)C(=O)N[C@H]2C(=O)N[C@H]3C(=O)N[C@H](C(=O)N[C@H](C(=O)NCC(=O)Nc4ccc5c(c4)Cc4ccccc4-5)c4cc(O)cc(O)c4-c4cc3ccc4O)[C@H](O)c3ccc(c(Cl)c3)Oc3cc2cc(c3O[C@@H]2O[C@H](CO)[C@@H](O)[C@H](O)[C@H]2O[C@H]2C[C@](C)(N)[C@H](O)[C@H](C)O2)Oc2ccc(cc2Cl)[C@H]1O
Result string: 0.20
